# ASSAY_PROTOCOL: Half life in mouse plasma at 3 uM by LC-MS/MS analysis
# Type: ADME, cell-free
REPORTED_METRIC: half-life at 3 µM

Take a look at these entries with their results.
- COc1ccnc(-c2nc(O)c(O)c(C(=O)N[C@H](C)C3CCCCC3)n2)c1: > 24 h
- C[C@@H](NC(=O)c1nc(-c2nccc3ccccc23)nc(O)c1O)C1CCCCC1: 3.7 h
- C[C@@H](NC(=O)c1nc(-c2cc(Cl)ccn2)nc(O)c1O)C1CCCCC1: > 6 h

Okay, now this molecule:
The value of half-life at 3 µM measured for the molecule C[C@@H](NC(=O)c1nc(-c2cc(C(F)(F)F)ccn2)nc(O)c1O)C1CCCCC1 turned out to be > 1 h

====

# ASSAY_PROTOCOL: Half life in human hepatocytes at 3 uM by LC-MS/MS analysis
# Type: ADME, cell-based, Hepatocyte
REPORTED_METRIC: half-life at 3 µM

• COc1ccnc(-c2nc(O)c(O)c(C(=O)N[C@H](C)C3CCCCC3)n2)c1 = > 4 h
• C[C@@H](NC(=O)c1nc(-c2cc(Cl)ccn2)nc(O)c1O)C1CCCCC1 = > 4 h
• C[C@@H](NC(=O)c1nc(-c2nccc3ccccc23)nc(O)c1O)C1CCCCC1 = 2.6 h

Okay, now this molecule:
The value of half-life at 3 µM measured for the molecule C[C@@H](NC(=O)c1nc(-c2cc(C(F)(F)F)ccn2)nc(O)c1O)C1CCCCC1 turned out to be > 4 h

====

Listed here are molecules together with their documented selectivity ratio at 7 days.
# ASSAY_PROTOCOL: Selectivity index, ratio of CC50 for human PBMC cells stimulated with phytohemagglutinin and interleukin-2 assessed as reduction in cell viability measured after 7 days by MTS assay to EC50 for wild-type HIV1 NL4-3 infected in human TZM-bl cells infected with supernatants from virus-infected human MT2 cells treated with compound for 48 to 72 hrs assessed as reduction in viral replication after 2 days by bright Glo-luciferase reporter gene assay based BiCycle assay
# Format: toxicity
# DETAILS: read-out: Ratio CC50/EC50
I only need the number, thanks.

- C[C@@H](NC(=O)c1nc(-c2nccc3ccccc23)nc(O)c1O)C1CCCCC1: 50
- COc1ccnc(-c2nc(O)c(O)c(C(=O)N[C@H](C)C3CCCCC3)n2)c1: 75
- C[C@@H](NC(=O)c1nc(-c2cc(Cl)ccn2)nc(O)c1O)C1CCCCC1: 25
- C[C@@H](NC(=O)c1nc(-c2cc(C(F)(F)F)ccn2)nc(O)c1O)C1CCCCC1: 3

Okay, now this molecule:
The value of selectivity ratio at 7 days measured for the molecule C[C@H](NC(=O)c1nc(-c2ccccn2)nc(O)c1O)C1CCCCC1 turned out to be 12

====

# ASSAY_PROTOCOL: Clearance in C57BL/6 mouse at 2 mg/kg, iv or 5 mg/kg, po administered as single dose measured up to 24 hrs by LC-MS/MS analysis
# Assay type: ADME, organism-based
# DETAILS: in vivo
Listed here are compounds together with their documented clearance.
Note: unit mL/min/kg is implicit; provide only the numeric part.

Take a look at these entries with their results.
* C[C@@H](NC(=O)c1nc(-c2nccc3ccccc23)nc(O)c1O)C1CCCCC1 | 30.2
* COc1ccnc(-c2nc(O)c(O)c(C(=O)N[C@H](C)C3CCCCC3)n2)c1 | 33.1

Okay, now this compound:
The value of clearance measured for the compound C[C@@H](NC(=O)c1nc(-c2cc(Cl)ccn2)nc(O)c1O)C1CCCCC1 turned out to be 37.1

====

# ASSAY_PROTOCOL: Selectivity index, ratio of CC50 for human PBMC cells stimulated with phytohemagglutinin and interleukin-2 assessed as reduction in cell viability measured after 7 days by MTS assay to EC50 for wild-type HIV1 NL4-3 infected in human TZM-bl cells infected with supernatants from virus-infected human MT2 cells treated with compound for 48 to 72 hrs assessed as reduction in viral replication after 2 days by bright Glo-luciferase reporter gene assay based BiCycle assay
# Assay type: toxicity
# DETAILS: read-out: Ratio CC50/EC50
Listed here are compounds together with their documented selectivity ratio at 7 days.
I only need the number, thanks.

Take a look at these entries with their results.
• O=C(NCCC1CCCCC1)c1nc(-c2ccccn2)nc(O)c1O = 5
• C[C@@H](NC(=O)c1nc(-c2ccccn2)nc(O)c1O)C1CCCCC1 = 4
• O=C(NCC1CCCCC1)c1nc(-c2ccccn2)nc(O)c1O = 2

Okay, now this compound:
The value of selectivity ratio at 7 days measured for the compound Cc1ccnc(-c2nc(O)c(O)c(C(=O)N[C@H](C)C3CCCCC3)n2)c1 turned out to be 16

====

Listed here are molecules together with their documented bioavailability.
# ASSAY_PROTOCOL: Oral bioavailability in C57BL/6 mouse at 5 mg/kg administered as single dose measured up to 24 hrs by LC-MS/MS analysis
# Assay type: ADME, organism-based
# DETAILS: in vivo
Note: unit % is implicit; provide only the numeric part.

Take a look at these entries with their results.
- COc1ccnc(-c2nc(O)c(O)c(C(=O)N[C@H](C)C3CCCCC3)n2)c1: 25
- C[C@@H](NC(=O)c1nc(-c2nccc3ccccc23)nc(O)c1O)C1CCCCC1: 26

Okay, now this molecule:
The value of bioavailability measured for the molecule C[C@@H](NC(=O)c1nc(-c2cc(Cl)ccn2)nc(O)c1O)C1CCCCC1 turned out to be 40

====

# ASSAY_PROTOCOL: Cytotoxicity against phytohemagglutinin and interleukin-2-stimulated human PBMC cells assessed as reduction in cell viability measured after 7 days by MTS assay
# Type: cell-based
Listed here are compounds together with their documented CC50 at 168 h.
Note: unit nM is implicit; provide only the numeric part.

• C[C@@H](NC(=O)c1nc(-c2ccccn2)nc(O)c1O)C1CCCCC1 = 3000
• COc1ccnc(-c2nc(O)c(O)c(C(=O)N[C@H](C)C3CCCCC3)n2)c1 = 2700
• C[C@@H](NC(=O)c1nc(-c2nccc3ccccc23)nc(O)c1O)C1CCCCC1 = 5000
• C[C@@H](NC(=O)c1nc(-c2cc(C(F)(F)F)ccn2)nc(O)c1O)C1CCCCC1 = 1100
• Cc1ccnc(-c2nc(O)c(O)c(C(=O)N[C@H](C)C3CCCCC3)n2)c1 = 3100
• C[C@@H](NC(=O)c1nc(-c2cc(Cl)ccn2)nc(O)c1O)C1CCCCC1 = 2500
• O=C(NCC1CCCCC1)c1nc(-c2ccccn2)nc(O)c1O = 2600
• O=C(NCCC1CCCCC1)c1nc(-c2ccccn2)nc(O)c1O = 11000

The value of CC50 at 168 h measured for the compound C[C@H](NC(=O)c1nc(-c2ccccn2)nc(O)c1O)C1CCCCC1 turned out to be 2400

====

# ASSAY_PROTOCOL: Cytotoxicity against human HeLa cells assessed as reduction in cell viability
# Format: cell-based
Label 1 when CC50 is strictly below 3 µM; otherwise label -1.

Use the examples below as a reference point.
- C[C@@H](NC(=O)c1nc(-c2ccccn2)nc(O)c1O)C1CCCCC1: -1
- C[C@@H](NC(=O)c1nc(-c2cc(C(F)(F)F)ccn2)nc(O)c1O)C1CCCCC1: -1
- Cc1ccnc(-c2nc(O)c(O)c(C(=O)N[C@H](C)C3CCCCC3)n2)c1: 1

[Q] Answer whether the molecule C[C@@H](NC(=O)c1nc(-c2nccc3ccccc23)nc(O)c1O)C1CCCCC1 has CC50 strictly less than 3 µM
[A] 1

[Q] Answer whether the molecule O=C(NCC1CCCCC1)c1nc(-c2ccccn2)nc(O)c1O has CC50 strictly less than 3 µM
[A] -1

====

# Test system: Human immunodeficiency virus 1
# ASSAY_PROTOCOL: Antiviral activity against wild-type HIV1 NL4-3 infected in human TZM-bl cells infected with supernatants from virus-infected human MT2 cells treated with compound for 48 to 72 hrs assessed as reduction in viral replication after 2 days by bright Glo-luciferase reporter gene assay based BiCycle assay
# Assay type: functional, organism-based
# DETAILS: Human immunodeficiency virus 1, NL4-3, TZM
REPORTED_METRIC: log10(EC50) (log10 of the value in nM)
Note: values are log10 of EC50 expressed in nM.

Take a look at these entries with their results.
* Cc1ccnc(-c2nc(O)c(O)c(C(=O)N[C@H](C)C3CCCCC3)n2)c1 | 2.30
* C[C@H](NC(=O)c1nc(-c2ccccn2)nc(O)c1O)C1CCCCC1 | 2.30
* C[C@@H](NC(=O)c1nc(-c2nccc3ccccc23)nc(O)c1O)C1CCCCC1 | 2.00
* C[C@@H](NC(=O)c1nc(-c2ccccn2)nc(O)c1O)C1CCCCC1 | 2.85

The value of log10(EC50) measured for the compound C[C@@H](NC(=O)c1nc(-c2cc(C(F)(F)F)ccn2)nc(O)c1O)C1CCCCC1 turned out to be 2.60

The value of log10(EC50) measured for the compound COc1ccnc(-c2nc(O)c(O)c(C(=O)N[C@H](C)C3CCCCC3)n2)c1 turned out to be 1.60
